From: patent US20140212495A1

Test: 4-week subchronic toxicity study in dogs, D-24851 plasma pharmacokinetics
Type: in vivo
Conditions: female, dog, plasma, iv, 2.61 mg/kg, Day 27; Composition 4 i.v. 2.61 mg/kg; Females; Meanar n=3; read-out: Cmax, md

Compound	Unit name	Cmax
O=C(Nc1ccncc1)C(=O)c1cn(Cc2ccc(Cl)cc2)c2ccccc12 [Composition D-24851]	ng/mL	148

====

Experiment: 4-week subchronic toxicity study in dogs, D-24851 plasma pharmacokinetics
Assay type: in vivo
Conditions: female, dog, plasma, iv, 5.62 mg/kg, Day 1; Composition 4 i.v. 5.62 mg/kg; Females; only for orientating, unsufficient curve fitting
Method: Blood samples from all animals were taken at the following times: 1 h, 2 h, 4 h, 8 h, 16 h, 24 h, 36 h and 48 hours after application. The concentration levels of D-24851 were measured using HPLC.

Compound	half-life / h
O=C(Nc1ccncc1)C(=O)c1cn(Cc2ccc(Cl)cc2)c2ccccc12 [Composition D-24851]	20
